- tested_target: UniProt:P35968
- Sequence (P35968 whole entry, looked up): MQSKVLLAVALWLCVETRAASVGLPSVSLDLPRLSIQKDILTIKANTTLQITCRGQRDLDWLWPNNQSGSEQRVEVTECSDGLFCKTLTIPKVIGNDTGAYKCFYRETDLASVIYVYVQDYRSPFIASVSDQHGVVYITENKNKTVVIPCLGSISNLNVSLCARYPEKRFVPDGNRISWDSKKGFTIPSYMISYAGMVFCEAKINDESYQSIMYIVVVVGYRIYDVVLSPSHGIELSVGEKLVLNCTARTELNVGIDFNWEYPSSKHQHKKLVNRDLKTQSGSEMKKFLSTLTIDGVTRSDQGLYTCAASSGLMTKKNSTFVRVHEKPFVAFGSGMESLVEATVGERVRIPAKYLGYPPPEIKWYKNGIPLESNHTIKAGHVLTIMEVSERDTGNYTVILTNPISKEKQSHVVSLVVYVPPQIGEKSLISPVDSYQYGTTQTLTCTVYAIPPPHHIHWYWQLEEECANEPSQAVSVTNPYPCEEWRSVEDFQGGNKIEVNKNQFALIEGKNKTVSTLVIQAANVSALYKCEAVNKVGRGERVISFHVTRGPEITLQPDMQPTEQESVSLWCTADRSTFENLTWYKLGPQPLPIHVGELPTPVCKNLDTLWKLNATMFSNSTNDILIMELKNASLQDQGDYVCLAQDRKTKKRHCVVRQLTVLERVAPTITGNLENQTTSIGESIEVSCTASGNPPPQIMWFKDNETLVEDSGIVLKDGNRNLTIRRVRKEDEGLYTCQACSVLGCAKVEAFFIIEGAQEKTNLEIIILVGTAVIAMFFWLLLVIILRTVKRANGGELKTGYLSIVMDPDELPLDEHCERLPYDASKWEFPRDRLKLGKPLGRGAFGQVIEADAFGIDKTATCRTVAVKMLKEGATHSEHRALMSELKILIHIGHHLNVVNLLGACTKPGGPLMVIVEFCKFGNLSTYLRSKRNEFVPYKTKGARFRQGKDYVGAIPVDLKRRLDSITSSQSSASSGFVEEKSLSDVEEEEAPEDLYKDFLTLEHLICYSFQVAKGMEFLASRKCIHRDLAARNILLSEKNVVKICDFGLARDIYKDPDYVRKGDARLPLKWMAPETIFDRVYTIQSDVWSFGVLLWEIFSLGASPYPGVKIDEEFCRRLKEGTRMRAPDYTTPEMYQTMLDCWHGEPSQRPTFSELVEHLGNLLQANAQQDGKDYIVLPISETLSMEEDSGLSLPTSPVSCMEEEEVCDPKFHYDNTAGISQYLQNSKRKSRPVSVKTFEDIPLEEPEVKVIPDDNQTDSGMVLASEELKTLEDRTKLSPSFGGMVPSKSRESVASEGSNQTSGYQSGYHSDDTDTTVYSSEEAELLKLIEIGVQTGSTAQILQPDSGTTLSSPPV
- experimental_protocol: KINOMEscan competition binding
- run_parameters: compound 10.0 µM
kinase still bound, per cent of control reference

smi | unit_text | kinase still bound, per cent of control
CS(=O)(=O)N1CCN(Cc2cc3nc(-c4cccc5[nH]ncc45)nc(N4CCOCC4)c3s2)CC1 | % | 100
COc1ccc(N(C(=O)Oc2c(C)cccc2C)c2ccnc(Nc3ccc(N4CCN(C)CC4)cc3)n2)c(OC)c1 | % | 15
C=CC(=O)Nc1cc(-n2c(=O)ccc3cnc4ccc(-c5cn[nH]c5)cc4c32)ccc1C | % | 50
COCC(=O)NC/C=C/c1ccc2ncnc(Nc3ccc(Oc4ccc(C)nc4)c(C)c3)c2c1 | % | 100
CN(C)C/C=C/C(=O)Nc1ccc(C(=O)Nc2cccc(Nc3nccc(-c4cccnc4)n3)c2)cc1 | % | 36
COc1cc2ncnc(-n3nc(-c4ccccn4)nc3N)c2cc1OC | % | 52
COc1cc2ncn(-c3cc(OCc4ccccc4C(F)(F)F)c(C(N)=O)s3)c2cc1OC | % | 76
O=c1cc(N2CCOCC2)oc2c(-c3cccc4c3sc3ccccc34)cccc12 | % | 100
COc1cc(N2CCN(C)CC2)ccc1Nc1ncc2c(n1)N(C)c1ccccc1C(=O)N2C | % | 100

====

- tested_target: ITK (human) (UniProt Q08881)
- Sequence (Q08881 whole entry, looked up): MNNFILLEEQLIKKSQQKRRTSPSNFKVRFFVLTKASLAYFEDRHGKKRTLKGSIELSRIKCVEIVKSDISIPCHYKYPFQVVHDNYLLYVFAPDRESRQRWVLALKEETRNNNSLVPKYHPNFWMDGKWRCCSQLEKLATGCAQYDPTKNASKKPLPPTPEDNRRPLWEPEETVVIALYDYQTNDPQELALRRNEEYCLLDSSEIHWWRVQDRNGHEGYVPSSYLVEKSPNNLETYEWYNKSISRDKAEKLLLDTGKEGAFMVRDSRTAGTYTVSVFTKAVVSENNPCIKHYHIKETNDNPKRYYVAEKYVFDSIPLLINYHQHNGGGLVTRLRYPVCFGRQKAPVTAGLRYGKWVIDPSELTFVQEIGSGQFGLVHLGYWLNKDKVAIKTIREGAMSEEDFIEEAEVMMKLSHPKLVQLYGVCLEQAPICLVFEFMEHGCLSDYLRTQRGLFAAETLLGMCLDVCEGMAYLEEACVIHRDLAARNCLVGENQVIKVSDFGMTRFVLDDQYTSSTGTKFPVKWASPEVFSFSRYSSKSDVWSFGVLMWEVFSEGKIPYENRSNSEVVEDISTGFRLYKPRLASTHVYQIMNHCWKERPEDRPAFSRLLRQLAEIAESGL
- experimental_protocol: KINOMEscan competition binding
- run_parameters: compound 10.0 µM
kinase still bound, per cent of control reference
observed_property: kinase still bound, per cent of control (%)

smi | observed_property | unit_text | numeric_readout
CNC(=O)c1ccc(Nc2cc(Nc3ccccc3S(=O)(=O)C(C)C)c3cc[nH]c3n2)nc1 | kinase still bound, per cent of control | % | 0.15
N#CCNC(=O)c1ccc(-c2ccnc(Nc3ccc(N4CCOCC4)cc3)n2)cc1 | kinase still bound, per cent of control | % | 98
COc1ccc(N(C(=O)Oc2c(C)cccc2C)c2ccnc(Nc3ccc(N4CCN(C)CC4)cc3)n2)c(OC)c1 | kinase still bound, per cent of control | % | 100
C=CC(=O)Nc1ccc(CN(C(=O)Nc2c(Cl)c(OC)cc(OC)c2Cl)c2cc(Nc3ccc(N4CCN(C)CC4)cc3)ncn2)cc1 | kinase still bound, per cent of control | % | 16

====

- tested_target: STK4 (human)
- experimental_protocol: KINOMEscan competition binding
- run_parameters: compound 10.0 µM
observed_property: kinase still bound, per cent of control (%)

smi | numeric_readout
CNC(=O)c1cc(Oc2ccc(NC(=O)Nc3ccc(Cl)c(C(F)(F)F)c3)cc2)ccn1 | 81
Cc1n[nH]c2ccc(-c3cncc(OC[C@@H](N)Cc4c[nH]c5ccccc45)c3)cc12 | 100
NC(=O)Nc1cc(-c2cccc(F)c2)sc1C(=O)N[C@@H]1CCCNC1 | 0.4
O=c1cc(N2CCOCC2)oc2c(-c3cccc4c3sc3ccccc34)cccc12 | 98

====

- tested_target: MYLK3 (human)
- experimental_protocol: KINOMEscan competition binding
- run_parameters: compound 10.0 µM

smi | kinase still bound, per cent of control / %
O=C1NC(=O)/C(=C/c2ccc3nccc(-c4ccncc4)c3c2)S1 | 6.2
CS(=O)(=O)N1CCN(Cc2cc3nc(-c4cccc5[nH]ncc45)nc(N4CCOCC4)c3s2)CC1 | 100
CCN(CC)CCCCNc1ncc2c(n1)N(C)C(=O)N(c1c(Cl)c(OC)cc(OC)c1Cl)C2 | 100
C[C@@H](Oc1cc(-c2cnn(C3CCNCC3)c2)cnc1N)c1c(Cl)ccc(F)c1Cl | 100
COc1cc(C(=O)N2CCC(N3CCN(C)CC3)CC2)ccc1Nc1ncc2c(n1)N(C)c1ccccc1C(=O)N2C | 100
CCN(CC)CCCCNc1ncc2cc(-c3cc(OC)cc(OC)c3)c(NC(=O)NC(C)(C)C)nc2n1 | 100
C=CC(=O)Nc1ccc(CN(C(=O)Nc2c(Cl)c(OC)cc(OC)c2Cl)c2cc(Nc3ccc(N4CCN(C)CC4)cc3)ncn2)cc1 | 100
COc1cc2ncn(-c3cc(OCc4ccccc4C(F)(F)F)c(C(N)=O)s3)c2cc1OC | 100
O=C(Nc1cccc(Nc2ncc(Br)c(NCCc3cnc[nH]3)n2)c1)N1CCCC1 | 0.1
NC(=O)Nc1cc(-c2cccc(F)c2)sc1C(=O)N[C@@H]1CCCNC1 | 10
C=CC(=O)Nc1cc(-n2c(=O)ccc3cnc4ccc(-c5cn[nH]c5)cc4c32)ccc1C | 100
COc1cc(N2CCN(C)CC2)ccc1Nc1ncc2c(n1)N(C)c1ccccc1C(=O)N2C | 100
N#CCNC(=O)c1ccc(-c2ccnc(Nc3ccc(N4CCOCC4)cc3)n2)cc1 | 68
COc1cc2ncnc(-n3nc(-c4ccccn4)nc3N)c2cc1OC | 100
O=c1cc(N2CCOCC2)oc2c(-c3cccc4c3sc3ccccc34)cccc12 | 100
Cc1n[nH]c2ccc(-c3cncc(OC[C@@H](N)Cc4c[nH]c5ccccc45)c3)cc12 | 2.8
CNC(=O)c1ccc(Nc2cc(Nc3ccccc3S(=O)(=O)C(C)C)c3cc[nH]c3n2)nc1 | 100
COc1ccc(N(C(=O)Oc2c(C)cccc2C)c2ccnc(Nc3ccc(N4CCN(C)CC4)cc3)n2)c(OC)c1 | 100
COCC(=O)NC/C=C/c1ccc2ncnc(Nc3ccc(Oc4ccc(C)nc4)c(C)c3)c2c1 | 100
CN(C)C/C=C/C(=O)Nc1ccc(C(=O)Nc2cccc(Nc3nccc(-c4cccnc4)n3)c2)cc1 | 87
CCN1CCN(C(=O)Cc2ccc(Nc3ncc(F)c(Nc4ccc(C(=O)Nc5ccccc5Cl)cc4)n3)cc2)CC1 | 100
